Data origin, for the record: patent US20240228562A1

- tested-target: T1, Rat CTGF (Rattus norvegicus, UniProt Q9R1E9)
- T1 construct: purchased R&D Systems
- T1 sequence (Q9R1E9 25-347): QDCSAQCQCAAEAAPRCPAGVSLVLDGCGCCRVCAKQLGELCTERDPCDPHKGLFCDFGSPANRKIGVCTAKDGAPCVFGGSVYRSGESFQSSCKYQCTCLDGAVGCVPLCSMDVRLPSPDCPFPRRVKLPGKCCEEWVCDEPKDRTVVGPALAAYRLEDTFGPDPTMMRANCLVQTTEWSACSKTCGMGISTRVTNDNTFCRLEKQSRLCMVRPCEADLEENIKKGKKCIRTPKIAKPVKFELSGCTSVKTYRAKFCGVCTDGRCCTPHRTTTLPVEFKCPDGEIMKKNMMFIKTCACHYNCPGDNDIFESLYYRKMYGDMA
- method-notes: SPR binding kinetics and affinity, rat CTGF
- condition-context: 25° C., 1:1 binding model
Quick list: Rat CTGF kon per entry.
Write down the numeric answer in M⁻¹ s⁻¹ and omit the unit.

SEQ ID NO: 7: parent CTGF-binding hNGAL lipocalin mutein (protein, lipocalin mutein) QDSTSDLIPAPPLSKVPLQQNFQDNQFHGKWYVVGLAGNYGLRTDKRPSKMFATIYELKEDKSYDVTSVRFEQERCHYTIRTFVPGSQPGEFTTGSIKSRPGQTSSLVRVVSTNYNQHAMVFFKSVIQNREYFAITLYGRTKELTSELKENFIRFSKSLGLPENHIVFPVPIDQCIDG; 120000
SEQ ID NO: 33: optimized CTGF-binding hNGAL lipocalin mutein (protein, lipocalin mutein) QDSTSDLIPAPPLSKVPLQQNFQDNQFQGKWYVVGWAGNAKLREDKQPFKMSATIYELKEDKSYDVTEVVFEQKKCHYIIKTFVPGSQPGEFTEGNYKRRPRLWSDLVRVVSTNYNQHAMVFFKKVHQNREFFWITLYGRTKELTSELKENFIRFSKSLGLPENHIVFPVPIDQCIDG; 279000

# context switch: different molecule, same Rat CTGF kon
Determine its reported Rat CTGF kon: SEQ ID NO: 9: parent CTGF-binding hNGAL lipocalin mutein (protein, lipocalin mutein) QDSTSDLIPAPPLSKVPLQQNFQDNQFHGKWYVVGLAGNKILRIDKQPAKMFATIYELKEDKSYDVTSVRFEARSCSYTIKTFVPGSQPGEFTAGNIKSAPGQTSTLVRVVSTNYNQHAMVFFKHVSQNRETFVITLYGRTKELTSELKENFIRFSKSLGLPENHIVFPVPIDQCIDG
105000
